- measured-on: WIZ (Homo sapiens, UniProt O95785+Q96SW2)
- Construct: HUDEP-2 cells engineered to express a HiBiT tag in either the WIZ (Widely interspaced zinc finger) or ZBTB7A
- Sequence (O95785 whole entry): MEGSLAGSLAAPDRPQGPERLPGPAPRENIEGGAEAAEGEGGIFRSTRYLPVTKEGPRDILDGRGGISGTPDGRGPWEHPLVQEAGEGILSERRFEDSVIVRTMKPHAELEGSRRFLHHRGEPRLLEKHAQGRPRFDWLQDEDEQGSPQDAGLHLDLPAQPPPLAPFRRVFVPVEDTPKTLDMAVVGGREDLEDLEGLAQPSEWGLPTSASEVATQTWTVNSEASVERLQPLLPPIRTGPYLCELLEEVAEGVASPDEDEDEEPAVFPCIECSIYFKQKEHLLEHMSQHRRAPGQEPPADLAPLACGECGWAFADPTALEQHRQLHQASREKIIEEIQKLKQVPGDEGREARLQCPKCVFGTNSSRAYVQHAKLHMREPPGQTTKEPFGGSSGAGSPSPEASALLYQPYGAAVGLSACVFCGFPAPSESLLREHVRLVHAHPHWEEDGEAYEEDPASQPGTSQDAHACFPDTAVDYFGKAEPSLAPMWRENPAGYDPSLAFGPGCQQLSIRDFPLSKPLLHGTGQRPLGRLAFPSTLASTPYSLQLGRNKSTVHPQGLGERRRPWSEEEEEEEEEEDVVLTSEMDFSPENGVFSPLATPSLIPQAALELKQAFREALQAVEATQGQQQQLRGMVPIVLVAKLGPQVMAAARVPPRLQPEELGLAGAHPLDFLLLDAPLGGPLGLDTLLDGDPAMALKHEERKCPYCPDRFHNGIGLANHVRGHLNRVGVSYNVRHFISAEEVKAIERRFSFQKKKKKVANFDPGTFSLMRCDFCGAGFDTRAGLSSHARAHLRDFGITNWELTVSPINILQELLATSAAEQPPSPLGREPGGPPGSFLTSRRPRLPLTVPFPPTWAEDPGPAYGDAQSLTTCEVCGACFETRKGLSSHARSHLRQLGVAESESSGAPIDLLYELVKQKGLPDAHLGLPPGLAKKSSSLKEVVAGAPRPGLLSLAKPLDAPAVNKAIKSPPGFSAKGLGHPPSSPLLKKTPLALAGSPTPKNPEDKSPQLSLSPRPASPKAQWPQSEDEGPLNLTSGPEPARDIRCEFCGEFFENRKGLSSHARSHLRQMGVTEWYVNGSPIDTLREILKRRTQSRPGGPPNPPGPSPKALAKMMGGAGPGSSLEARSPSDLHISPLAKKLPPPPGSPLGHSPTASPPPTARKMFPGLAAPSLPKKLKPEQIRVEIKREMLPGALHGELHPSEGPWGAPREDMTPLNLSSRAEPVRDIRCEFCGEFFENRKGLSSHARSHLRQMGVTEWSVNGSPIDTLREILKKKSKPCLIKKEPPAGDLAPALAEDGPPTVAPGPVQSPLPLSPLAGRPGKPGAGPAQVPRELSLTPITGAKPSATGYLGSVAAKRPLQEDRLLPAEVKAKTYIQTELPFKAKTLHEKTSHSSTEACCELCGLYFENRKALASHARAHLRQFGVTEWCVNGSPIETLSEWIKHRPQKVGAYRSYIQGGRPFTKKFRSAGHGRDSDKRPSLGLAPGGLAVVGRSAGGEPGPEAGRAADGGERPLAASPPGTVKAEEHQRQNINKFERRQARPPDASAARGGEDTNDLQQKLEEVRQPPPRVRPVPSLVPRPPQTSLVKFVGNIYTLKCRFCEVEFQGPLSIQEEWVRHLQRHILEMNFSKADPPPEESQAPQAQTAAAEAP
- Sequence (Q96SW2 whole entry): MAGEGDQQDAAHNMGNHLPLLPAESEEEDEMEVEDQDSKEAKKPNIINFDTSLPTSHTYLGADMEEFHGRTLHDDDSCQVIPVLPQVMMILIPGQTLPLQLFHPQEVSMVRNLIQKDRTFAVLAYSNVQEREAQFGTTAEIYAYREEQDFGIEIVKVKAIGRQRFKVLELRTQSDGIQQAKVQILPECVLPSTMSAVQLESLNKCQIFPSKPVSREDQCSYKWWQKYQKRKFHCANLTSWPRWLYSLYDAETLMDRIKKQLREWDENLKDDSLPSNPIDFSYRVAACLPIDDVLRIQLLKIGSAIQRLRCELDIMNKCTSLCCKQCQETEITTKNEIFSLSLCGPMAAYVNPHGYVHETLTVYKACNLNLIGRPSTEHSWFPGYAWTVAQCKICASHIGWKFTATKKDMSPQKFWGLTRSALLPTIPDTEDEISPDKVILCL
- Sequence (Q16531 whole entry partner): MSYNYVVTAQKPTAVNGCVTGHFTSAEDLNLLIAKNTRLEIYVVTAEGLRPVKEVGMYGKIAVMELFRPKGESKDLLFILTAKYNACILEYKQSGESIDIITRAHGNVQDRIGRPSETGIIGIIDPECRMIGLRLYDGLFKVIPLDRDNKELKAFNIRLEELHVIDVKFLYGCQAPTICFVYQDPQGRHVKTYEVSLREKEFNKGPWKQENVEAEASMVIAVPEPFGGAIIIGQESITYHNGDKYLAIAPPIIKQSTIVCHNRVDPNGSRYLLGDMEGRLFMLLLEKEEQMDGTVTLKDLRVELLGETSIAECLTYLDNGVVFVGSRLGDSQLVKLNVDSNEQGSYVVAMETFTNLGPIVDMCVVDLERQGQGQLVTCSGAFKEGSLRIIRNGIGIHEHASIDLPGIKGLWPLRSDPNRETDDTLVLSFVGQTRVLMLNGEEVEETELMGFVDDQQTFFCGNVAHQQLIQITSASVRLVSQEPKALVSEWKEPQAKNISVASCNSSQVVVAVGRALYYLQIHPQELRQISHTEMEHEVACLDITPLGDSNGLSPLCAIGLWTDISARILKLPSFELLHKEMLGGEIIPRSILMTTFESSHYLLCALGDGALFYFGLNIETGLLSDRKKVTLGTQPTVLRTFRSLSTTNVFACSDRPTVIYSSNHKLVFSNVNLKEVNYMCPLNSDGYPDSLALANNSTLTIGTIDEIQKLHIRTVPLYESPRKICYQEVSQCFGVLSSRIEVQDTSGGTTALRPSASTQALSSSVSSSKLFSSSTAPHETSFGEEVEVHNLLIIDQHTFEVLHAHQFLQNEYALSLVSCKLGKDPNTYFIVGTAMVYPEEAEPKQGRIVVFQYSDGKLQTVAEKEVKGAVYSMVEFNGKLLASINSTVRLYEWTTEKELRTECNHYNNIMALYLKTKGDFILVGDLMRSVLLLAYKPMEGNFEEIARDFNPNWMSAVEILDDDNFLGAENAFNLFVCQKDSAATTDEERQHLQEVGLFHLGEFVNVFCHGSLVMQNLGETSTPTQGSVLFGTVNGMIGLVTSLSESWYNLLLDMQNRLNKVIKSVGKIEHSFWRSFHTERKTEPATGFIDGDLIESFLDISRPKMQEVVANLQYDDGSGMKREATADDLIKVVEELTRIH
- run-description: HUDEP-2 WIZ HiBiT degradation assay
- Assay type: cell-based
- run-parameters: HiBiT-tagged WIZ degradation in HUDEP-2 cells, 24 hours of treatment; read-out: WIZ EC50
property-label: DC50 (nM)

Before answering, review these 3 worked examples.
> print(dat)
                                   compound  property.label  units.text  numeric.result
1  Cc1cc(-c2cc3c(cc2Nc2cccc4c2C(=O)N([C@H]2CCC(=O)NC2=O)C4=O)N(C)C(=O)[C@H](C)C3)ccn1 [Compound 87]            DC50          nM              12
2  Cc1cc(-c2cc3c(cc2Nc2cccc4c2C(=O)N([C@@H]2CCC(=O)NC2=O)C4=O)N(C)C(=O)CO3)c(F)cn1 [Compound 58]            DC50          nM               9
3  Cc1cc(-c2cc3c(cc2Nc2cccc4c2C(=O)N([C@H]2CCC(=O)NC2=O)C4=O)N(C)C(=O)CO3)ccn1 [Compound 18]            DC50          nM              11

1 = Cc1cc(-c2cc3c(cc2Nc2cccc4c2C(=O)N([C@H]2CCC(=O)NC2=O)C4=O)N(C)C(=O)[C@@H](C)C3)ccn1 [Compound 86]
2 = Cc1cc(-c2c(Nc3cccc4c3C(=O)N(C3CCC(=O)NC3=O)C4=O)cc3c(c2F)OCC(=O)N3C)cc(C(F)F)n1 (stereo not shown) [Compound 78]
3 = CNc1cc(-c2cc3c(cc2Nc2cccc4c2C(=O)N(C2CCC(=O)NC2=O)C4=O)N(C)C(=O)CO3)cc(C)n1 (stereo not shown) [Compound 66]
4 = CN1C(=O)COc2cc([C@H]3CC[C@H](C#N)CC3)c(Nc3cccc4c3C(=O)N([C@H]3CCC(=O)NC3=O)C4=O)cc21 [Compound 68]
Order the items by recorded DC50; the first position goes to the largest value. Please respond with the labels ordered as the question requires.
2, 3, 1, 4

A = Cc1cc(-c2cc3c(cc2Nc2cccc4c2C(=O)N([C@@H]2CCC(=O)NC2=O)C4=O)N(C)C(=O)CO3)ccn1 [Compound 59]
B = Cc1cc(-c2cc3c(cc2Nc2cccc4c2C(=O)N([C@@H]2CCC(=O)NC2=O)C4=O)N(C)C(=O)OC3)ccn1 [Compound 12]
C = CO[C@H]1CC[C@@H](c2cc3c(cc2Nc2cccc4c2C(=O)N(C2CCC(=O)NC2=O)C4=O)N(C)C(=O)CC3)CC1 (stereo partly shown) [Compound 92]
D = COc1cc(-c2c(Nc3cccc4c3C(=O)N([C@H]3CCC(=O)NC3=O)C4=O)cc3c(c2F)OCC(=O)N3C)c(F)cn1 [Compound 76]
Order the items by recorded DC50; the first position goes to the largest value. Please respond with the labels ordered as the question requires.
B, D, A, C
(B: 37 nM, D: 22 nM, A: 8 nM, C: 2 nM)

1 = CC(=O)N1CCC(c2cc3c(cc2Nc2cccc4c2C(=O)N(C2CCC(=O)NC2=O)C4=O)N(C)C(=O)CC3)CC1 (stereo not shown) [Compound 84]
2 = Cc1cncc(-c2cc3c(cc2Nc2cccc4c2C(=O)N([C@H]2CCC(=O)NC2=O)C4=O)N(C)C(=O)CO3)c1 [Compound 41]
// compare measured DC50 between 1 and 2 ; output the lower one Select an item and report its label.
1
